assay: protein stability index of a GFP-peptide fusion (yeast GPS) (PSI 1-4); higher = more stable; sorted into four equal gates, so the index is relative within each strain; settings: pdr5∆
readout-type: protein stability index

[[record]]
entry_sequence = "NDNYSSDMENDNLLLNL [REC8]"
readout_type = "protein stability index"
test_value = 2.96

[[record]]
entry_sequence = "KYLSDIMELPGVYSDDE [SRP68]"
readout_type = "protein stability index"
test_value = 3.08

[[record]]
entry_sequence = "DSFSGAKIYPGRGTLFV [RPL24A]"
readout_type = "protein stability index"
test_value = 3.08


###

experiment: protein stability index of a GFP-peptide fusion (yeast GPS) (PSI 1-4); higher = more stable; sorted into four equal gates, so the index is relative within each strain; conditions: doa10∆
protein stability index of 3 or higher: satisfied. Under 3: not satisfied.

[[record]]
entry_sequence = "VNADDDDFMHSETREKE [RPB4]"
assigned_class = "not satisfied"

[[record]]
entry_sequence = "NIVQVFKKAAPSPISHV [RPB2]"
assigned_class = "not satisfied"

[[record]]
entry_sequence = "DKETQLKKRAVSGVELR [POP7]"
assigned_class = "not satisfied"

[[record]]
entry_sequence = "NTLRMKHGTYDKLDDDG [RPB2]"
assigned_class = "not satisfied"

[[record]]
entry_sequence = "VINPQQLLKGLSLSFSK [DSN1]"
assigned_class = "satisfied"

[[record]]
entry_sequence = "FKRDLLREKEDKKNSSD [YJL039C/NUP192]"
assigned_class = "satisfied"

[[record]]
entry_sequence = "LEHLHSTAFQNTPLSLP [COR1]"
assigned_class = "not satisfied"

[[record]]
entry_sequence = "SKKRKLVADGVFYAELN [RPS3]"
assigned_class = "not satisfied"

[[record]]
entry_sequence = "GIVETNRPDNKNAQYHL [RPN7]"
assigned_class = "satisfied"

[[record]]
entry_sequence = "QASDPSKKKKNIKKKDT [RPC53]"
assigned_class = "satisfied"

[[record]]
entry_sequence = "VKQVLLSVEIGVLTDIS [NUT1]"
assigned_class = "not satisfied"

[[record]]
entry_sequence = "SVLNPFLLRRVKADVEK [ISW2]"
assigned_class = "not satisfied"

[[record]]
entry_sequence = "TETSNEDEDEDDETPSC [SNU114]"
assigned_class = "not satisfied"

[[record]]
entry_sequence = "SQESINQKLALVIKSGK [RPL30]"
assigned_class = "not satisfied"

[[record]]
entry_sequence = "LTALGKEKEKEREEAEK [MED2]"
assigned_class = "not satisfied"

[[record]]
entry_sequence = "TFIYGYCDKNFRENMSK [PRE3]"
assigned_class = "not satisfied"

[[record]]
entry_sequence = "GFIENCNGSALVEARSL [MTR3]"
assigned_class = "not satisfied"

[[record]]
entry_sequence = "TDSWESFFVSVRKAITV [FAS1]"
assigned_class = "not satisfied"

[[record]]
entry_sequence = "FISELCSIEPIAAKLIN [YML103C/NUP188]"
assigned_class = "not satisfied"

[[record]]
entry_sequence = "AKAKRRHTTGTGRMRYL [RPL37A]"
assigned_class = "satisfied"

[[record]]
entry_sequence = "LHGLRSFYDAIFFNIPL [YJL039C/NUP192]"
assigned_class = "not satisfied"

[[record]]
entry_sequence = "IVMVWLKENTYVMERPK [YDL116W/NUP84]"
assigned_class = "not satisfied"

[[record]]
entry_sequence = "IPRTFRTPVPSTLMPGG [SNF5]"
assigned_class = "not satisfied"

[[record]]
entry_sequence = "ASSWAKKIAQRERRAAL [RPL14A]"
assigned_class = "not satisfied"

[[record]]
entry_sequence = "ENDAKKSKGDVDIKGED [NUT1]"
assigned_class = "satisfied"

[[record]]
entry_sequence = "TAEFGKILAGLHDTQIE [RPN10]"
assigned_class = "satisfied"

[[record]]
entry_sequence = "ALLTVLKALSHHYNPKT [BRR2]"
assigned_class = "not satisfied"

[[record]]
entry_sequence = "DVFDTLATYCPRVQGFY [GRR1]"
assigned_class = "not satisfied"

[[record]]
entry_sequence = "LTFNSKNIQSKDSYINA [FAS2]"
assigned_class = "not satisfied"

[[record]]
entry_sequence = "SQCRLHELREKERISVA [PRE2]"
assigned_class = "not satisfied"

[[record]]
entry_sequence = "IDMHLIYGVEWLIEGKL [YDL116W/NUP84]"
assigned_class = "not satisfied"

[[record]]
entry_sequence = "IRTILVNIHHLLNEYRP [MED7]"
assigned_class = "not satisfied"

[[record]]
entry_sequence = "QMPLNSNGGNNMLPQRQ [SNF2]"
assigned_class = "not satisfied"

[[record]]
entry_sequence = "TQVNILKENNAILQKSL [YIL149C/MLP2]"
assigned_class = "not satisfied"

[[record]]
entry_sequence = "SMATPTHSDSHEDMKRR [ROX3]"
assigned_class = "not satisfied"

[[record]]
entry_sequence = "SKLLQTTLKLSPSPILL [NUT1]"
assigned_class = "not satisfied"

[[record]]
entry_sequence = "TKKISNFNSSLHKRQQF [YJL039C/NUP192]"
assigned_class = "not satisfied"

[[record]]
entry_sequence = "ELAQDPQTMEHYKQQIA [YCS4]"
assigned_class = "not satisfied"

[[record]]
entry_sequence = "SLVKYPELLDSLAILGM [SWI1]"
assigned_class = "not satisfied"

[[record]]
entry_sequence = "RPYGVGLLIIGYDKSGA [PRE5]"
assigned_class = "not satisfied"

[[record]]
entry_sequence = "QILIFAADTSIVEQDKS [YJL039C/NUP192]"
assigned_class = "not satisfied"

[[record]]
entry_sequence = "GTSQNYGTATADDADIE [MED1]"
assigned_class = "satisfied"

[[record]]
entry_sequence = "EPYVAYGYPSYSTIRQL [RPL7A]"
assigned_class = "not satisfied"

[[record]]
entry_sequence = "SGEEKGKKVTGFKDEVL [RPS1A]"
assigned_class = "not satisfied"

